Test: Pharmacokinetic and brain exposure evaluation in rats
Assay type: in vivo, SD male rats
Conditions: male, SD, 1 mg/kg; rat plasma, IV 1 mpk; read-out: Vdss
experimental.endpoint: Vd (L/kg)
Numbers only, in L/kg.

Vd lookup needed for Cc1cc2ncnn2cc1Nc1ncc2c(n1)n(N1CC3CCC(C1)O3)c(=O)n2C , thanks.
1.41

====

Assay: Pharmacokinetic evaluation in mice (2), plasma
Type: in vivo, Balb/c male mice
Details: male, Balb/c, 10 mg/kg; mouse plasma, PO 10 mpk
experimental.endpoint: Cmax (µM)
One number for each entry, in µM.

Cmax lookup needed for Cc1cc2ncnn2cc1Nc1ncc2c(n1)n(N1CC3CCC(C1)O3)c(=O)n2C , thanks.
11.4

====

Would you kindly list Tmax for each of these compounds?
Assay: Pharmacokinetic evaluation (1): cassette PK in Balb/c male mice, plasma
Format: in vivo
Settings: male, Balb/c; mouse plasma, PO 2 mg/kg; read-out: Tmax
Numbers only, in min.

Cc1cc2nncn2cc1Nc1ncc2c(n1)n(N1CC3CCC(C1)O3)c(=O)n2C : 60
Cc1cc2ncnn2cc1Nc1ncc2c(n1)n(N1CCOC3(CC3)C1)c(=O)n2C : 30

Attention now turns to another entry.
Tmax lookup needed for Cc1cc2ncnn2cc1Nc1ncc2c(n1)n(N1C3CCC1COC3)c(=O)n2C , thanks.
15

====

Assay: Pharmacokinetic evaluation (1): cassette PK in Balb/c male mice, plasma
Format: in vivo
Conditions: male, Balb/c; mouse plasma, PO 2 mg/kg
experimental.endpoint: Cmax (nM)
One number for each entry, in nM.

# example entries with known answers
Cc1cc2nncn2cc1Nc1ncc2c(n1)n(N1CC3CCC(C1)O3)c(=O)n2C : 1540
Cc1cc2ncnn2cc1Nc1ncc2c(n1)n(N1CCOC3(CC3)C1)c(=O)n2C : 2060

Attention now turns to another entry.
Cmax lookup needed for Cc1cc2ncnn2cc1Nc1ncc2c(n1)n(N1C3CCC1COC3)c(=O)n2C , thanks.
1600

====

Test: Pharmacokinetic evaluation (1): cassette PK in Balb/c male mice, plasma
Format: in vivo
Settings: male, Balb/c; mouse plasma, IV 1 mg/kg
Protocol: Test compounds were mixed with 10% dimethyl sulfoxide/50% polyethylene glycol 200/40% water (compounds 1, 4, 10, 17) or 20% N,N-dimethylacetamide/80% water (compound 5), vortexed and sonicated to prepare a nearly clear solution of 0.08 mg/mL (compounds 1, 4, 10, 17) or 0.50 mg/mL (compound 5), then filtered through a microporous membrane for next step. […]
experimental.endpoint: clearance (mL/min/kg)
Answers are plain numbers, in mL/min/kg.

clearance lookup needed for Cc1cc2ncnn2cc1Nc1ncc2c(n1)n(N1CC3CCC(C1)O3)c(=O)n2C , thanks.
24.7

====

Test: Pharmacokinetic and brain exposure evaluation in rats
Format: in vivo, SD male rats
Details: male, SD, 10 mg/kg; rat plasma, PO 10 mpk
experimental.endpoint: AUC(0-t) (µM·h)
Give bare numbers, in µM·h.

AUC(0-t) lookup needed for Cc1cc2nncn2cc1Nc1ncc2c(n1)n(N1CC3CCC(C1)O3)c(=O)n2C , thanks.
32.5

====

Assay: Pharmacokinetic evaluation in mice (2), plasma
Type: in vivo, Balb/c male mice
Details: male, Balb/c, 2 mg/kg; mouse plasma, IV 2 mpk
experimental.endpoint: half-life (min)
Answers are plain numbers, in min.

half-life lookup needed for Cc1cc2ncnn2cc1Nc1ncc2c(n1)n(N1CC3CCC(C1)O3)c(=O)n2C , thanks.
44

FYI, the data here is from patent US20230026616A1.
